Experiment: Cytotoxicity against African green monkey Vero cells assessed as inhibition of cell growth measured after 3 days by MTT assay
Format: toxicity, cell-based
Conditions: African green monkey (Chlorocebus sabaeus)
Recorded measurements of IC50 at 3 days, one per entry
// units = µM; emit number, no label

Some compounds with known IC50 at 3 days results, for comparison:
compound | unit-annotation | IC50 at 3 days
COc1ccc(NC(=O)C2=C(C)NC(=S)NC2c2c[nH]c3ccccc23)c(OC)c1 (stereo not drawn) | µM | 50.3
COc1ccc(NC(=O)C2=C(C)NC(=O)NC2c2ccc(O)c(OC)c2)c(OC)c1 (stereo not drawn) | µM | 42.9
COc1ccc(NC(=O)C2=C(C)NC(=O)NC2)c(OC)c1 | µM | 87.2
COc1ccc(C2NC(=S)NC(C)=C2C(=O)Nc2ccc(OC)cc2OC)cc1 (stereo not drawn) | µM | 32.8
COc1ccc(NC(=O)C2=C(C)NC(=O)NC2/C=C\c2ccccc2)c(OC)c1 (stereo not drawn) | µM | 30.4
COc1ccc(NC(=O)C2=C(C)NC(=S)NC2c2cccc(O)c2)c(OC)c1 (stereo not drawn) | µM | 69.2
CCOc1cc(C2NC(=O)NC(C)=C2C(=O)Nc2ccc(OC)cc2OC)ccc1O (stereo not drawn) | µM | 58.2
COc1ccc(NC(=O)C2=C(C)NC(=S)NC2c2ccc(OC)c(OC)c2)c(OC)c1 (stereo not drawn) | µM | 43.9
COc1ccc(NC(=O)C2=C(C)NC(=O)NC2c2cccc(Br)c2)c(OC)c1 (stereo not drawn) | µM | 48.1
COc1ccc(NC(=O)C2=C(C)NC(=O)NC2c2ccc(OCc3ccccc3)c(OC)c2)c(OC)c1 (stereo not drawn) | µM | 18.4

Q: Given COc1ccc(NC(=O)C2=C(C)NC(=O)NC2c2c[nH]c3ccccc23)c(OC)c1 (stereo not drawn) , respond with its IC50 at 3 days.
Ans: 42.6

* * *

Assay: Cytotoxicity against African green monkey Vero cells assessed as inhibition of cell growth measured after 3 days by MTT assay
Assay type: toxicity, cell-based
Conditions: African green monkey (Chlorocebus sabaeus)
IC50 at 3 days strictly less than 60 µM = satisfied. Otherwise not satisfied.

compound | class-assignment
CCOc1cc(C2NC(=S)NC(C)=C2C(=O)Nc2ccc(OC)cc2OC)ccc1O (stereo not given) | satisfied

Q: Is it true that IC50 at 3 days reported for COc1ccc(NC(=O)C2=C(C)NC(=O)NC2c2ccccc2O)c(OC)c1 (stereo not given) is less than 60 µM?
Ans: satisfied

Q: Is it true that IC50 at 3 days reported for COc1ccc(NC(=O)C2=C(C)NC(=O)NC2c2cccc(O)c2)c(OC)c1 (stereo not given) is less than 60 µM?
Ans: satisfied

Q: Is it true that IC50 at 3 days reported for COc1ccc(NC(=O)C2=C(C)NC(=O)NC2c2cccc(Cl)c2)c(OC)c1 (stereo not given) is less than 60 µM?
Ans: not satisfied

Q: Is it true that IC50 at 3 days reported for COc1ccc(NC(=O)C2=C(C)NC(=O)NC2c2ccccc2[N+](=O)[O-])c(OC)c1 (stereo not given) is less than 60 µM?
Ans: satisfied

Q: Is it true that IC50 at 3 days reported for COc1ccc(NC(=O)C2=C(C)NC(=S)NC2c2ccc(O)c(OC)c2)c(OC)c1 (stereo not given) is less than 60 µM?
Ans: satisfied

Q: Is it true that IC50 at 3 days reported for COc1ccc(NC(=O)C2=C(C)NC(=S)NC2c2ccccc2)c(OC)c1 (stereo not given) is less than 60 µM?
Ans: satisfied

Q: Is it true that IC50 at 3 days reported for COc1ccc(C2NC(=O)NC(C)=C2C(=O)Nc2ccc(OC)cc2OC)cc1 (stereo not given) is less than 60 µM?
Ans: satisfied

Q: Is it true that IC50 at 3 days reported for COc1ccc(NC(=O)C2=C(C)NC(=O)NC2c2ccco2)c(OC)c1 (stereo not given) is less than 60 µM?
Ans: not satisfied

* * *

Assay: Cytotoxicity against African green monkey Vero cells assessed as inhibition of cell growth measured after 3 days by MTT assay
Format: toxicity, cell-based
Settings: African green monkey (Chlorocebus sabaeus)
Classes are defined on IC50 at 3 days with ranges band 1 = under 50 µM, band 2 = from 50 µM up to 60 µM, band 3 = 60 µM and over

Use these answered entries as a reference point.
compound | class-assignment
COc1ccc(NC(=O)C2=C(C)NC(=S)NC2c2ccco2)c(OC)c1 (stereo not given) | band 1
COc1ccc(NC(=O)C2=C(C)NC(=S)NC2c2ccc(Cl)cc2)c(OC)c1 (stereo not given) | band 1
COc1ccc(NC(=O)C2=C(C)NC(=O)NC2c2ccc(Cl)cc2Cl)c(OC)c1 (stereo not given) | band 3
COc1ccc(NC(=O)C2=C(C)NC(=O)NC2c2ccc(Cl)cc2)c(OC)c1 (stereo not given) | band 3
COc1ccc(NC(=O)C2=C(C)NC(=O)NC2c2ccc(N(C)C)cc2)c(OC)c1 (stereo not given) | band 2

Q: For the record COc1ccc(NC(=O)C2=C(C)NC(=S)NC2/C=C\c2ccccc2)c(OC)c1 (stereo not given) , report the class its IC50 at 3 days corresponds to.
Ans: band 1

Q: For the record COc1ccc(NC(=O)C2=C(C)NC(=S)NC2c2ccc(C)cc2)c(OC)c1 (stereo not given) , report the class its IC50 at 3 days corresponds to.
Ans: band 2

Q: For the record COc1ccc(NC(=O)C2=C(C)NC(=O)NC2c2ccc(O)cc2)c(OC)c1 (stereo not given) , report the class its IC50 at 3 days corresponds to.
Ans: band 2

* * *

Biological target: Epidermal growth factor receptor (Homo sapiens, UniProt P00533)
Sequence (P00533 whole entry): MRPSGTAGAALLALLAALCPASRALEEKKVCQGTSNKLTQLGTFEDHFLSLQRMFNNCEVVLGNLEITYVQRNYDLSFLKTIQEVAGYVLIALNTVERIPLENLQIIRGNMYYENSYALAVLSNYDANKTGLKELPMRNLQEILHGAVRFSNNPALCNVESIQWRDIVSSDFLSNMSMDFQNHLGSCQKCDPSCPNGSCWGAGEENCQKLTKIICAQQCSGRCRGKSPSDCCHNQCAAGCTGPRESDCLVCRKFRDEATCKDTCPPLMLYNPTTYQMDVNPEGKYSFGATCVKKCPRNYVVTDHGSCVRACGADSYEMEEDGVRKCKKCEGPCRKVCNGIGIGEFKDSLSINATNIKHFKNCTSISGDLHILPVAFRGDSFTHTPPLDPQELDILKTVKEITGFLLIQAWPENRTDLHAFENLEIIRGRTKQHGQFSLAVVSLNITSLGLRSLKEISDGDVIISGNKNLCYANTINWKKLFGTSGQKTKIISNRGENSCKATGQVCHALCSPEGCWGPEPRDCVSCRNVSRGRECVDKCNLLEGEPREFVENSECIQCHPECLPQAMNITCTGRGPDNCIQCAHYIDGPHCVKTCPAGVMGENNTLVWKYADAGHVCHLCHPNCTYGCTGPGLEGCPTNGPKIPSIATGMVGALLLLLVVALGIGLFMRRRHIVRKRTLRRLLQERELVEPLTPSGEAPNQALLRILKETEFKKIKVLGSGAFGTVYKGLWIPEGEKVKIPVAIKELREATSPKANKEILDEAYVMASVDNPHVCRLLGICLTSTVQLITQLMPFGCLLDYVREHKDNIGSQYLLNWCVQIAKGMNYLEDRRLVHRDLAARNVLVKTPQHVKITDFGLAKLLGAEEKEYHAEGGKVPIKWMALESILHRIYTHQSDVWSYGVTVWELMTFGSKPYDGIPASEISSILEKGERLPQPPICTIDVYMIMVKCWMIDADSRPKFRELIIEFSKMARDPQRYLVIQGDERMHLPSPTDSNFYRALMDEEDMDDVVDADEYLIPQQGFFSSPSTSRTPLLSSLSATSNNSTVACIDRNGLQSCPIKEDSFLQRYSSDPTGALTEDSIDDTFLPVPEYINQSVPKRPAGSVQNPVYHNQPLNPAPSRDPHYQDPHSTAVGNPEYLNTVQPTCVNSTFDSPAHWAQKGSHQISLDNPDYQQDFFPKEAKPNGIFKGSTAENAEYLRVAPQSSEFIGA
property-label: pIC50
// returns pIC50 (minus log10 of molar concentration), number only

Q: Provide measured pIC50 on Epidermal growth factor receptor (Homo sapiens, UniProt P00533) for COc1ccc(NC(=O)C2=C(C)NC(=O)NC2c2ccc(OC)c(OC)c2)c(OC)c1 (stereo unspecified) please.
Ans: 7.16

* * *

Experiment: Cytotoxicity against African green monkey Vero cells assessed as inhibition of cell growth measured after 3 days by MTT assay
Type: toxicity, cell-based
Settings: African green monkey (Chlorocebus sabaeus)
property-label: IC50 at 3 days (µM)
// units = µM; emit number, no label

Some molecules with known IC50 at 3 days results, for comparison:
molecule | IC50 at 3 days (µM)
COc1ccc(NC(=O)C2=C(C)NC(=O)NC2c2ccc(Br)cc2)c(OC)c1 (configuration not stated) | 49.4
COc1ccc(NC(=O)C2=C(C)NC(=S)NC2c2ccc(N(C)C)cc2)c(OC)c1 (configuration not stated) | 53.1
COc1ccc(NC(=O)C2=C(C)NC(=S)NC2c2ccc(O)cc2)c(OC)c1 (configuration not stated) | 40

Q: Given COc1ccc(NC(=O)C2=C(C)NC(=O)NC2c2ccc(OC)c(OC)c2)c(OC)c1 (configuration not stated) , respond with its IC50 at 3 days.
Ans: 30.1

Q: Given COc1ccc(NC(=O)C2=C(C)NC(=S)NC2c2ccc(OCc3ccccc3)c(OC)c2)c(OC)c1 (configuration not stated) , respond with its IC50 at 3 days.
Ans: 52.9

Q: Given CS(=O)(=O)CCNCc1ccc(-c2ccc3ncnc(Nc4ccc(OCc5cccc(F)c5)c(Cl)c4)c3c2)o1 , respond with its IC50 at 3 days.
Ans: 19.3

Q: Given COc1ccc(NC(=O)C2=C(C)NC(=O)NC2c2ccccc2)c(OC)c1 (configuration not stated) , respond with its IC50 at 3 days.
Ans: 60.4
